# Test system: 217524-143-R1-J4-PDC spheroids with HUVEC/MSC, viability;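 note: spheroids exposed to agents for seven days before reading; 100% = DMSO vehicle control viability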
# method description: Anticancer human tumor 217524-143-R1-J4-PDC patient-derived pancreatic carcinoma cell line growth inhibition [CLK]
# experimental setup: second compound 3.16 µM; first compound 1 µM; active compounds read low
observation type: viability, T/C (%)
Give the value in % but do not write % after it.

These recorded examples may help you get a feel for the data.
molecule: COc1ccc([C@@H](O)c2cc(-c3ncnc4cc(N5CCOCC5)ccc34)c(F)cc2Cl)nn1 + CN1CCN(c2cc(C(=O)Nc3cc4cc(-c5cnn(C)c5)ccc4cn3)ccn2)CC1
observed result: 0.44
--
molecule: CCCS(=O)(=O)Nc1ccc(F)c(C(=O)c2c[nH]c3ncc(-c4ccc(Cl)cc4)cc23)c1F + CNC(=O)c1ccc(Nc2nc(OC3CCCC3)c3c(-c4ccc5nc(C)oc5c4)c[nH]c3n2)c(OC)c1
observed result: 47.6
--
molecule: CC1COCCN1c1cc(C2(S(C)(=N)=O)CC2)nc(-c2ccnc3[nH]ccc23)n1 (stereo not given) + CNC(=O)c1ccc(Nc2nc(OC3CCCC3)c3c(-c4ccc5nc(C)oc5c4)c[nH]c3n2)c(OC)c1
observed result: 20.2
--
molecule: C=C(F)C(=O)N1CCN(c2nc(OCC3CCCN3C)nc3c2CCN(c2cccc4cccc(Cl)c24)C3)CC1CC#N (stereo not given) + CN1CCN(c2cc(C(=O)Nc3cc4cc(-c5cnn(C)c5)ccc4cn3)ccn2)CC1
observed result: 0.73

Short answer for COc1cccc2c1C(=O)c1c(O)c3c(c(O)c1C2=O)CC(O)(C(=O)CO)CC3OC1CC(N)C(O)C(C)O1 (stereo not given) + CNC(=O)c1ccc(Nc2nc(OC3CCCC3)c3c(-c4ccc5nc(C)oc5c4)c[nH]c3n2)c(OC)c1 : viability, T/C was 6.9

Values were extracted from PubChem BioAssay AID2060624.
